- System: MST2;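 further: KINOMEscan scanMAX binding as percent activity remaining versus control; lower means stronger binding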
- Construct: gene STK3
- assaySetup: Compound Concentration (nM):1000
We begin with a simple list: items and their reported Percent Control.
Answer with a number only, understood to be in %.

CC(C)COC(=O)c1ccc2c(c1)/C(=C/Nc1ccc(S(N)(=O)=O)cc1)C(=O)N2 [GW416981X] ... 1.1

Req: Return Percent Control measured with MST2 given this compound: CN(C)c1cc2c(Nc3ccc4c(cnn4Cc4ccccc4)c3)ncnc2cn1 [GW282974X]
Resp: 83

Req: Then this compound: COc1ccc2c(-c3ccnc(Nc4cccc(OC(F)(F)F)c4)n3)cnn2n1 [GW810372X]
Resp: 100

Req: Then this compound: Cl.O=C(Nc1ccc(Oc2ccc3[nH]c(NC(=O)c4ccccc4)nc3c2)cc1)Nc1cc(C(F)(F)F)ccc1F [GW709042A]
Resp: 100
